- RUN_DESCRIPTION: folding enthalpy; higher = less favourable; fluorescence melt of hairpins on a sequencing array, two-state fit
- DETAILS: sodium 0.088 M
PROPERTY_LABEL: folding enthalpy
Remember to quote the unit after the number.

Example entries begin here.
CHAIN_SEQUENCE	ASSAY_VALUE
GATTCAGGAAACTGGATC (((.(((....))).)))	-36.7 kcal/mol
GCTCGAGGAAACTTGAGC ((((.((....)).))))	-37.8 kcal/mol

Turning now to a further sequence:
// fetch folding enthalpy given entry GACCACGAAAGTGTGTC ((((((....))).)))
-27.3 kcal/mol

====

- RUN_DESCRIPTION: folding enthalpy; higher = less favourable; fluorescence melt of hairpins on a sequencing array, two-state fit
- DETAILS: sodium 0.088 M
Hi, to clarify the labels: met covers folding enthalpy from -20 kcal/mol upward, not met covers anything below -20 kcal/mol.

The examples below pair each entry with its known result.
CHAIN_SEQUENCE	CAT
GGATACGAAAGTATTCC ((((((....))).)))	not met
GGCTTGGGAAACCAAGTC (.(((((....))))).)	not met

// switching to the query sequence
Hi, just wondering whether GATAGCGAAAGCTCATC ((((((....))).))) shows folding enthalpy of -20 kcal/mol or higher.
met
